I'd be grateful if you could share measured Activity for these entries.
System: Transthyretin (Homo sapiens), P02766 [V50M]
Assay: Inhibition of human TTR V30M mutant expressed in Escherichia coli BL-21 assessed as fibril formation at 7.2 uM incubated for 30 mins measured after 96 hrs by light scattering method relative to control
Parameters: scale not given: the % may be the effect or the level left
Answers are plain numbers, in %.

A selection of reference data follows.
> print(dat)
                            input.smiles  measured.result
1  OB(O)c1cccc(/C=C/c2ccc(B(O)O)cc2Cl)c1               54
2       O=C(O)c1cccc(/C=C/c2ccc(O)cc2)c1              112
3      Oc1ccc(/C=C/c2ccc(O)cc2Cl)c(Cl)c1               62

Fill in Activity for each of the 7 molecules listed.
1. OB(O)c1ccc(/C=C/c2ccc(B(O)O)cc2Cl)c(Cl)c1
2. O=C(O)c1cccc(/C=C/c2ccc(B(O)O)cc2)c1
3. OB(O)c1ccc(/C=C/c2cc(O)cc(O)c2)cc1
4. O=C(O)c1cccc(/C=C/c2ccc(B(O)O)cc2Cl)c1
5. O=C(O)c1ccc2nc(-c3cc(Cl)cc(Cl)c3)oc2c1
6. O=C(O)c1cccc(/C=C/c2ccc(O)cc2Cl)c1
7. OB(O)c1ccc(/C=C/c2cc(O)cc(O)c2)c(Cl)c1

Solution:
[32, 48, 48, 32, 5, 41, 36]

Oc1cc(O)cc(/C=C/c2ccc(O)cc2Cl)c1 has a reported Activity of 44

----------
Target: Transthyretin (Homo sapiens, UniProt P02766)
Assay: Competitive binding affinity to human wild type TTR expressed in Escherichia coli BL-21 assessed as equilibrium dissociation constant of second site in presence of ANS by spectrofluorometer
READOUT KIND: pKd
Answers are plain numbers, as −log10 of the molar value.

Please review the following examples before continuing.
> print(dat)
                               molecule  measured.result
1    OB(O)c1ccc(/C=C/c2cc(O)cc(O)c2)cc1             6.33
2    O=C(O)c1cccc(/C=C/c2ccc(O)cc2Cl)c1             6.33
3      O=C(O)c1cccc(/C=C/c2ccc(O)cc2)c1             5.74
4  O=C(O)c1cccc(/C=C/c2ccc(B(O)O)cc2)c1             6.00

Each of the following entries comes with a recorded value; kindly state pKd for each.
1. OB(O)c1ccc(/C=C/c2cc(O)cc(O)c2)c(Cl)c1
2. OB(O)c1ccc(/C=C/c2ccc(B(O)O)cc2Cl)c(Cl)c1
3. Oc1ccc(/C=C/c2cc(O)cc(O)c2)cc1 [RESVERATROL]
4. Oc1ccc(/C=C/c2ccc(O)cc2Cl)c(Cl)c1
5. O=C(O)c1cccc(/C=C/c2ccc(B(O)O)cc2Cl)c1

Solution:
[6.36, 6.33, 6.33, 6.09, 6.35]

Summary: Oc1cc(O)cc(/C=C/c2ccc(O)cc2Cl)c1 , Transthyretin (Homo sapiens, UniProt P02766), pKd = 6.14

----------
Target: Transthyretin (Homo sapiens)
Test: Inhibition of human wild type TTR expressed in Escherichia coli BL-21 assessed as fibril formation at 7.2 uM incubated for 30 mins measured after 96 hrs by light scattering method relative to control
Set-up: scale not given: the % may be the effect or the level left
So I've got a bunch of molecules here, and I need their Activity values.
Numbers only, in %.

> print(dat)
                                   molecule                 target.system  value.units  measured.result
1  Oc1ccc(/C=C/c2cc(O)cc(O)c2)cc1 [RESVERATROL]  Transthyretin (Homo sapiens)            %               28
2          Oc1cc(O)cc(/C=C/c2ccc(O)cc2Cl)c1  Transthyretin (Homo sapiens)            %               22
3        O=C(O)c1cccc(/C=C/c2ccc(O)cc2Cl)c1  Transthyretin (Homo sapiens)            %               21

Batch of 3 molecules: report Activity for each.
1. O=C(O)c1cccc(/C=C/c2ccc(B(O)O)cc2Cl)c1
2. Oc1ccc(/C=C/c2ccc(O)cc2Cl)c(Cl)c1
3. OB(O)c1ccc(/C=C/c2cc(O)cc(O)c2)cc1

Solution:
16
30
21

----------
Target: Transthyretin (Homo sapiens, UniProt P02766)
Assay: Inhibition human wild type TTR expressed in Escherichia coli BL-21 assessed as fibril formation at 14.4 uM incubated for 30 mins after 96 hrs by light scattering method relative to control
Set-up: scale not given: the % may be the effect or the level left
READOUT KIND: Activity (%)
Answers are plain numbers, in %.

> print(dat)
                             input.smiles  readout.kind  measured.result
1  O=C(O)c1ccc2nc(-c3cc(Cl)cc(Cl)c3)oc2c1      Activity                0

For each of the compounds below, state Activity.
1. Oc1cc(O)cc(/C=C/c2ccc(O)cc2Cl)c1
2. O=C(O)c1cccc(/C=C/c2ccc(B(O)O)cc2)c1
3. Oc1ccc(/C=C/c2ccc(O)cc2Cl)c(Cl)c1
4. O=C(O)c1cccc(/C=C/c2ccc(O)cc2Cl)c1
5. O=C(O)c1cccc(/C=C/c2ccc(B(O)O)cc2Cl)c1

Solution:
1. 7
2. 11
3. 12
4. 3
5. 4

Would you mind giving Activity for every compound in the list below?
1. OB(O)c1ccc(/C=C/c2cc(O)cc(O)c2)c(Cl)c1
2. OB(O)c1cccc(/C=C/c2ccc(B(O)O)cc2Cl)c1
3. OB(O)c1ccc(/C=C/c2ccc(B(O)O)cc2Cl)c(Cl)c1
4. Oc1ccc(/C=C/c2cc(O)cc(O)c2)cc1
5. O=C(O)c1cccc(/C=C/c2ccc(O)cc2)c1
6. OB(O)c1ccc(/C=C/c2cc(O)cc(O)c2)cc1

Solution:
[4, 10, 3, 9, 77, 9]

----------
Test system: Transthyretin (Homo sapiens), P02766 [V50M]
Experiment: Inhibition of human TTR V30M mutant expressed in Escherichia coli BL-21 assessed as fibril formation at 14.4 uM incubated for 30 mins measured after 96 hrs by light scattering method relative to control
Set-up: scale not given: the % may be the effect or the level left
Can you tell me Activity for the items I'm about to list?
Give bare numbers, in %.

> print(dat)
                             input.smiles  readout.kind  value.units  measured.result
1  O=C(O)c1ccc2nc(-c3cc(Cl)cc(Cl)c3)oc2c1      Activity            %                8
2        O=C(O)c1cccc(/C=C/c2ccc(O)cc2)c1      Activity            %              120
3  O=C(O)c1cccc(/C=C/c2ccc(B(O)O)cc2Cl)c1      Activity            %               10
4      OB(O)c1ccc(/C=C/c2cc(O)cc(O)c2)cc1      Activity            %               23

Below are some compounds; for each one, tell me its Activity.
1. OB(O)c1cccc(/C=C/c2ccc(B(O)O)cc2Cl)c1
2. Oc1cc(O)cc(/C=C/c2ccc(O)cc2Cl)c1
3. O=C(O)c1cccc(/C=C/c2ccc(O)cc2Cl)c1

Solution:
1: 16; 2: 14; 3: 9

Go through the items and report each one's Activity.
1. O=C(O)c1cccc(/C=C/c2ccc(B(O)O)cc2)c1
2. OB(O)c1ccc(/C=C/c2cc(O)cc(O)c2)c(Cl)c1
3. OB(O)c1ccc(/C=C/c2ccc(B(O)O)cc2Cl)c(Cl)c1
4. Oc1ccc(/C=C/c2ccc(O)cc2Cl)c(Cl)c1

Solution:
28
12
8
27

----------
Biological target: UniProt P02766
Experiment: Inhibition of human wild type TTR expressed in Escherichia coli BL-21 assessed as fibril formation at 7.2 uM incubated for 30 mins measured after 96 hrs by light scattering method relative to control
Set-up: scale not given: the % may be the effect or the level left
Consider the following compounds; for each one, report its Activity.
Give bare numbers, in %.

Study these solved cases before continuing.
> print(dat)
                               input.smiles  measured.result
1    OB(O)c1ccc(/C=C/c2cc(O)cc(O)c2)c(Cl)c1               19
2  OB(O)c1ccc(/C=C/c2ccc(B(O)O)cc2Cl)c(Cl)c1               20
3    O=C(O)c1ccc2nc(-c3cc(Cl)cc(Cl)c3)oc2c1               22
4      O=C(O)c1cccc(/C=C/c2ccc(B(O)O)cc2)c1               21
5     OB(O)c1cccc(/C=C/c2ccc(B(O)O)cc2Cl)c1               26

// Activity lookup, compound = O=C(O)c1cccc(/C=C/c2ccc(O)cc2)c1 , result: 75
